Every entry's value here was drawn from patent US20180057462A1.

LogP[a] listing for selected compounds.
PROTOCOL_DESCRIPTION: LogP by HPLC on reversed phase columns (EEC directive 79/831 Annex V.A8), method [a]
Format: physicochemical
CONDITIONS: LC-UV, acidic range, 0.1% formic acid in water and acetonitrile as eluent (linear gradient 10% to 95% acetonitrile)
OBSERVED_PROPERTY: LogP[a]

COMPOUND	READOUT_VALUE
Cc1c(NC(=O)c2cccnc2C(F)F)cccc1OC(C)c1ccccc1F (stereo not shown)	3.37
O=C(Nc1cccc(-c2cc(F)ccc2F)c1Cl)c1cccnc1C(F)F	3.11
Cc1c(NC(=O)c2cccnc2C(F)F)cccc1OCCc1ccccc1F	3.31
O=C(Nc1cccc(-c2cccc(F)c2)c1Cl)c1cccnc1C(F)F	3.12
Cc1c(NC(=O)c2cccnc2C(F)F)cccc1OC(C)CCC(C)C (stereo not shown)	4.26
O=C(Nc1cccc(-c2cccc(Cl)c2)c1Cl)c1cccnc1C(F)F	3.49
CCOCC(C)Oc1cccc(NC(=O)c2cccnc2C(F)F)c1C (stereo not shown)	2.57
Cc1c(COC(C)C)cccc1NC(=O)c1cccnc1C(F)F	2.43
Cc1c(NC(=O)c2cccnc2C(F)F)cccc1S(=O)(=O)C1CCCC1	2.21
Cc1c(NC(=O)c2cccnc2C(F)F)cccc1OC1CCCC1	3.21
O=C(Nc1cccc(-c2ccccc2Cl)c1Cl)c1cccnc1C(F)F	3.22
Cc1c(NC(=O)c2cccnc2C(F)F)cccc1OCCc1ccccc1C(F)(F)F	3.74
Cc1c(NC(=O)c2cccnc2C(F)F)cccc1NC1CCCC1	2.17
Cc1c(NC(=O)c2cccnc2C(F)F)cccc1OCCc1ccc(Cl)cc1	3.68
Cc1c(NC(=O)c2cccnc2C(F)F)cccc1OC(C)c1cccc(C(F)(F)F)c1 (stereo not shown)	3.70
Cc1c(NC(=O)c2cccnc2C(F)F)cccc1OCC1CCCCC1	4.14
Cc1c(NC(=O)c2cccnc2C(F)F)cccc1OC(C)c1ccc(F)cc1 (stereo not shown)	3.29
Cc1c(NC(=O)c2cccnc2C(F)F)cccc1OCCc1ccc(F)cc1	3.29
O=C(Nc1cccc(-c2ccccc2)c1Cl)c1cccnc1C(F)F	3.05
